Recorded values, source ChEMBL document CHEMBL5113521.

target: Proteasome Macropain subunit MB1 (Homo sapiens, UniProt P28074); assay: Inhibition of 20S proteasome beta5 subunit (unknown origin) using Suc-LLVY-AMC as flurogenic substrate measured after 1 hr by fluorescence based analysis; details: read-out: pIC50 (converted)
Binary call on IC50 with cut-off 6 nM: strictly below means yes (1), and equality or higher means no (0).

Some solved entries appear below for comparison.
CC(C)C[C@H](NC(=O)CN(C)C(=O)c1cc(Cl)ccc1Cl)B(O)O = no (0)
CC(C)C[C@H](NC(=O)[C@H](CO)NC(=O)c1cc(Cl)ccc1Cl)B(O)O = yes (1)
CC(C)C[C@H](NC(=O)[C@H](Cc1ccccc1)NC(=O)c1cc(Cl)ccc1Cl)B(O)O = no (0)

As a next step, examine the compound that follows.
In plain terms, does CC(C)C[C@H](NC(=O)[C@H](Cc1ccccc1)NC(=O)c1c(Cl)cccc1Cl)B(O)O come in under 6 nM for IC50?
yes (1)

* * *

Reported values of IC50 at 24 h for individual entries
test: Cytotoxicity against HEK293 cells incubated for 24 hrs; type: toxicity, cell-based; settings: human

Fill in IC50 at 24 h for record CC(C)C[C@H](NC(=O)[C@H](Cc1ccccc1)NC(=O)c1c(F)cccc1F)B(O)O
< 79.4 nM

Return reported IC50 at 24 h. Input molecule: CC(C)C[C@H](NC(=O)[C@H](Cc1ccccc1)NC(=O)c1c(Cl)cccc1Cl)B(O)O
< 79.4 nM

Entry CC(C)C[C@H](NC(=O)[C@H](Cc1ccccc1)NC(=O)c1cnccn1)B(O)O [BORTEZOMIB] needs its IC50 at 24 h filled in; supply it.
< 79.4 nM

* * *

Biological target: Proteasome Macropain subunit MB1 (Homo sapiens)
Sequence (P28074 whole entry): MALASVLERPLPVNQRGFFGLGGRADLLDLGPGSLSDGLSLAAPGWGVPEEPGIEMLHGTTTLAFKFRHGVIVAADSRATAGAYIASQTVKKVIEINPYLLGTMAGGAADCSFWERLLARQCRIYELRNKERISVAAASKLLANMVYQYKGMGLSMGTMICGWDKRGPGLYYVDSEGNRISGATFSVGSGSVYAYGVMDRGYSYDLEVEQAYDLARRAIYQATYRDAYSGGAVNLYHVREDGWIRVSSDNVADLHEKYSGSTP
Assay: Inhibition of 20S proteasome beta5 subunit (unknown origin) using Suc-LLVY-AMC as flurogenic substrate measured after 1 hr by fluorescence based analysis
Conditions: read-out: IC50
Quantity measured: IC50 (nM)
// return numeric value only (unit: nM, not printed)

For Proteasome Macropain subunit MB1 (Homo sapiens), give IC50 of the listed compound: CC(C)C[C@H](NC(=O)[C@H](Cc1ccccc1)NC(=O)c1c(F)cccc1F)B(O)O
3.7

* * *

assay: Clearance in Sprague-Dawley rat at 0.5 mg/kg, iv measured upto 24 hrs by liquid chromatography tandem mass spectrometry; format: ADME, organism-based; conditions: in vivo
Quantity measured: clearance (mL/min/kg)
Your answer is read as mL/min/kg, so omit the unit and give the number.

Return clearance for the following compound: CC(C)C[C@H](NC(=O)[C@H](Cc1ccccc1)NC(=O)c1c(F)cccc1F)B(O)O
18.8

* * *

experiment: MRT (0 to infinity) in Sprague-Dawley rat at 0.5 mg/kg, iv measured upto 24 hrs by liquid chromatography tandem mass spectrometry; assay type: ADME, organism-based; details: in vivo
Quantity measured: MRT inf (h)
Please give a number only; it is taken to be in h.

Answer with the recorded MRT inf of CC(C)C[C@H](NC(=O)[C@H](Cc1ccccc1)NC(=O)c1c(F)cccc1F)B(O)O only.
6.14
